assayedTarget: Sentrin-specific protease 6 (Homo sapiens, UniProt Q9GZR1);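 further: Luminescence-based dose-response confirmatory assay of SENP6 inhibition, following up an ultra-high-throughput screen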
Sequence (Q9GZR1 whole entry): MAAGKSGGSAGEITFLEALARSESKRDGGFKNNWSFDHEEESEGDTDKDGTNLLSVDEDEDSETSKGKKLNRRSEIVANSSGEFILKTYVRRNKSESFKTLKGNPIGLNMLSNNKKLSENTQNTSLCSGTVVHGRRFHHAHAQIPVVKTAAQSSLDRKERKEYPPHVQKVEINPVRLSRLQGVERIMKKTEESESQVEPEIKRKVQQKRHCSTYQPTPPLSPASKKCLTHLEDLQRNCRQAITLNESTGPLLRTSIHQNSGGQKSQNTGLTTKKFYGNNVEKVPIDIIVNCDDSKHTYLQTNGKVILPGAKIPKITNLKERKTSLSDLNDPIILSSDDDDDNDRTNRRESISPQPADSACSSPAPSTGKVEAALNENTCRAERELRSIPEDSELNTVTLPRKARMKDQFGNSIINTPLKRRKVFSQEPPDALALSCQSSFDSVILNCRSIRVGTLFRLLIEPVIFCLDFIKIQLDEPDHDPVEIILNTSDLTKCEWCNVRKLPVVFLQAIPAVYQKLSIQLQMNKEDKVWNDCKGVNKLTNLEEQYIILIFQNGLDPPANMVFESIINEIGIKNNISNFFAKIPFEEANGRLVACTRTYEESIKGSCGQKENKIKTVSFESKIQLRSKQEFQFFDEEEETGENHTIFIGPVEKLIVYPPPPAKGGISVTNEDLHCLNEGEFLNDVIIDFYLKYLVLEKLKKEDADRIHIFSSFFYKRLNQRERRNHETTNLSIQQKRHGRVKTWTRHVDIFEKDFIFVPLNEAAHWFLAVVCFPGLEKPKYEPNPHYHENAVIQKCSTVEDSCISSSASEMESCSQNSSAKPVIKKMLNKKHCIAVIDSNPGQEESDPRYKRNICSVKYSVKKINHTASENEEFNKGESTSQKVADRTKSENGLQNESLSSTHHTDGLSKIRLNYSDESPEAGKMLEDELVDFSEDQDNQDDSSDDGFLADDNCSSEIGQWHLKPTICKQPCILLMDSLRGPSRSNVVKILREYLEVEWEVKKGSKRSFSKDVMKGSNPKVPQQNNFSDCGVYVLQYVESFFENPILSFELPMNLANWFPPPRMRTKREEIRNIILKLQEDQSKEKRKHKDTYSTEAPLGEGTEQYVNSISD
Assay type: functional
Calls of active or inactive are those of the source.
recordedEndpoint: IC50

Guide cases for IC50, answers given:
moleculeSmiles | recordedEndpoint | result
CC(C)(C)c1ccc2c(c1)C(=O)c1ccccc1C2=O | IC50 | 4.05 µM (active)
NS(=O)(=O)c1ccc(NC(=O)COC(=O)c2ccc([N+](=O)[O-])s2)cc1 | IC50 | 4.59 µM (active)
O=C(COc1ccc(Cc2ccccc2)cc1)c1ccc(F)cc1 | IC50 | 69.3 µM (active)
Cc1cccnc1Nc1nc(-c2ccc(O)cc2O)cs1 | IC50 | 8 µM (active)
O=C1c2ccccc2-c2nnc(-c3ccc(F)cc3)cc21 | IC50 | 2.5 µM (active)
Cc1cccc(OCc2cc(-c3ccccc3)no2)c1C | IC50 | 20.1 µM (active)
Cc1ccccc1-c1nnc(-c2ccccc2C)o1 | IC50 | 6.65 µM (active)
O=C(Cn1cc(SCc2ccc(Cl)cc2)c2ccccc21)N1CCOCC1 | IC50 | 10.3 µM (active)

*Q* # IC50 lookup, item CCCCNc1cc(NC(C)=O)cc2cc(OC)c(OC)cc12
*A* 6.78 µM (active)

* * *

Below are AC50 values recorded for Cytochrome P450 3A4 (Homo sapiens, UniProt P08684).

Guide cases for AC50, answers given:
molecule | AC50
c1ccc(CN2CC[C@@]3(CCCNC3)C2)cc1 | 10 µM (inconclusive)
COC(=O)[C@H]1C[C@@H]1[C@H](NC(=O)c1cc(C)on1)c1ccccc1 | 15.8 µM (inconclusive)
Cc1nn(-c2nc3ccccc3[nH]2)c(N)c1-c1ccc(Cl)cc1 | 25.1 µM (inconclusive)
O=C(CC(c1ccccc1)c1ccccc1)Nc1ccc2c(c1)OCCO2 | 20 µM (inconclusive)
CC(=O)Nc1ccc2c(c1)/C(=N/c1ccc(C(=O)O)cc1)c1ccccc1-2 | 3.98 µM (inconclusive)

Field: AC50. Fill in for each record below.
1. Cc1ccc(C(=O)Nc2ccc(C(=O)/C=C/c3cccs3)cc2)cc1
2. Cn1cccc1C(=O)N1CCC2(CCCN(Cc3ccc(C#N)cc3)C2)CC1
3. CC(=O)N1CCC2(CCCN(Cc3cc(C(F)(F)F)cc(C(F)(F)F)c3)C2)CC1
4. CN1CC[C@@]2(CCCN(C(=O)c3cc(C(F)(F)F)cc(C(F)(F)F)c3)C2)C1
5. C[C@H](N)C1CCC(C(=O)Nc2ccncc2)CC1 (stereo not given in full)

*A*
1. 5.01 µM (inconclusive)
2. 15.8 µM (inconclusive)
3. 15.8 µM (inconclusive)
4. 25.1 µM (inconclusive)
5. 15.8 µM (inconclusive)

Field: AC50. Fill in for each record below.
1. COCCn1c(=O)[nH]c2cc(C(=O)N3CCN(c4ccccc4OC)CC3)ccc2c1=O
2. CCOC(=O)N1CCC(NC(=O)CCC(=O)N2CCOc3ccccc32)CC1
3. COc1ccc(-n2c(-c3ccccc3)nc(=S)c3c2CCCC3)cc1
4. COc1ccc(C(=O)N2CCC3(CC2)CN(Cc2ccc(C#N)cc2)C3)cc1
5. O=C(NC1(C(F)(F)F)NC(=O)N(Cc2cccnc2)C1=O)c1ccccc1 (stereo not given)

*A*
1: 14.1 µM (inconclusive); 2: 10 µM (inconclusive); 3: 20 µM (inconclusive); 4: 0.631 µM (inconclusive); 5: 0.891 µM (inconclusive)

Field: AC50. Fill in for each record below.
1. N=C(N)N[C@H](CCC(=O)O)C(=O)O
2. CCOc1cc(NC(=O)c2cccs2)c(OCC)cc1NC(=O)c1ccco1
3. O=C(NCC1CCCO1)c1nn2c(c1Cl)NC(c1ccc(F)cc1)CC2C(F)(F)F (stereo not given)
4. Nc1ccccc1C#Cc1ccccc1
5. O=C(COC(=O)c1cccc(S(=O)(=O)N2CCOCC2)c1)Nc1nc(-c2ccccc2Cl)cs1
6. COC(=O)C/C=C\[C@@H](C)[C@@H](/C=N\OC[C@@H](C)[C@H](OCc1ccccc1)C(C)C)OC
7. CC(C)(C)C(=O)N1CCC(O)(CS(=O)(=O)Cc2ccc(Cl)cc2)CC1

*A*
1. 3.16 µM (inconclusive)
2. 0.178 µM (inconclusive)
3. 14.1 µM (inconclusive)
4. 15.8 µM (inconclusive)
5. 11.2 µM (inconclusive)
6. 3.16 µM (inconclusive)
7. 20 µM (inconclusive)
